- experiment-description: Selectivity index, ratio of CC50 for African green monkey Vero cells to IC50 for chloroquine-sensitive Plasmodium falciparum 3D7 infected in human erythrocytes
- Assay type: toxicity, cell-based
- details: read-out: Ratio CC50/IC50
observable: selectivity ratio

>  <smiles-data>
CC(=O)C[C@H]1O[C@@H](On2cc(CN3C(=O)/C(=N\Nc4ccc(F)cc4)c4ccccc43)nn2)[C@H](OC(C)=O)[C@@H](OC(C)=O)[C@@H]1OC(C)=O

>  <observable>
selectivity ratio

>  <measured>
30.5

$$$$
>  <smiles-data>
CC1(C)O[C@H]2[C@@H](O1)[C@@H](Cn1cc(CN3C(=O)/C(=N\Nc4cccc(Cl)c4)c4ccccc43)nn1)O[C@@H]1OC(C)(C)O[C@@H]12

>  <observable>
selectivity ratio

>  <measured>
36.2

$$$$
>  <smiles-data>
CC(=O)C[C@H]1O[C@@H](On2cc(CN3C(=O)/C(=N\Nc4cccc(Cl)c4)c4ccccc43)nn2)[C@H](OC(C)=O)[C@@H](OC(C)=O)[C@@H]1OC(C)=O

>  <observable>
selectivity ratio

>  <measured>
29.4

$$$$
>  <smiles-data>
CC(=O)C[C@H]1O[C@@H](On2cc(CN3C(=O)/C(=N\Nc4ccccc4)c4ccccc43)nn2)[C@H](OC(C)=O)[C@@H](OC(C)=O)[C@H]1OC(C)=O

>  <observable>
selectivity ratio

>  <measured>
18.6

$$$$
>  <smiles-data>
CC(=O)C[C@H]1O[C@@H](On2cc(CN3C(=O)C(=O)c4ccccc43)nn2)[C@H](OC(C)=O)[C@@H](OC(C)=O)[C@@H]1OC(C)=O

>  <observable>
selectivity ratio

>  <measured>
38.6

$$$$
>  <smiles-data>
CC(=O)C[C@H]1O[C@@H](On2cc(CN3C(=O)/C(=N\Nc4ccc(Br)cc4)c4ccccc43)nn2)[C@H](OC(C)=O)[C@@H](OC(C)=O)[C@H]1OC(C)=O

>  <observable>
selectivity ratio

>  <measured>
39.9

$$$$
>  <smiles-data>
COc1ccc(N/N=C2\C(=O)N(Cc3cn(O[C@@H]4O[C@H](CC(C)=O)[C@@H](OC(C)=O)[C@H](OC(C)=O)[C@H]4OC(C)=O)nn3)c3ccccc32)cc1

>  <observable>
selectivity ratio

>  <measured>
31.2

$$$$
>  <smiles-data>
CC1(C)O[C@H]2O[C@H](Cn3cc(CN4C(=O)/C(=N\Nc5ccc(C#N)cc5)c5ccccc54)nn3)[C@H](O)[C@H]2O1

>  <observable>
selectivity ratio

>  <measured>
21.8

$$$$
>  <smiles-data>
CC1(C)O[C@H]2[C@@H](O1)[C@@H](Cn1cc(CN3C(=O)/C(=N\Nc4ccc(C#N)cc4)c4ccccc43)nn1)O[C@@H]1OC(C)(C)O[C@@H]12

>  <observable>
selectivity ratio

>  <measured>
34.9

$$$$
>  <smiles-data>
COc1ccc(N/N=C2\C(=O)N(Cc3cn(C[C@H]4O[C@@H]5OC(C)(C)O[C@@H]5[C@H]4O)nn3)c3ccccc32)cc1

>  <observable>
selectivity ratio

>  <measured>
19.6

$$$$
>  <smiles-data>
CC(=O)C[C@H]1O[C@@H](On2cc(CN3C(=O)/C(=N\Nc4cccc(Cl)c4)c4ccccc43)nn2)[C@H](OC(C)=O)[C@@H](OC(C)=O)[C@H]1OC(C)=O

>  <observable>
selectivity ratio

>  <measured>
35.6

$$$$
>  <smiles-data>
O=C1/C(=N\Nc2ccccc2)c2ccccc2N1Cc1cn(O[C@@H]2O[C@H](CO)[C@H](O)[C@H](O)[C@H]2O)nn1

>  <observable>
selectivity ratio

>  <measured>
17.4

$$$$
>  <smiles-data>
CC(=O)C[C@H]1O[C@@H](On2cc(CN3C(=O)/C(=N\Nc4ccccc4)c4ccccc43)nn2)[C@H](OC(C)=O)[C@@H](OC(C)=O)[C@@H]1OC(C)=O

>  <observable>
selectivity ratio

>  <measured>
28.9

$$$$
>  <smiles-data>
O=C1/C(=N\Nc2ccccc2)c2ccccc2N1Cc1cn(O[C@@H]2O[C@H](CO)[C@@H](O)[C@H](O)[C@H]2O)nn1

>  <observable>
selectivity ratio

>  <measured>
18.8

$$$$

###

Below, each entry is listed alongside its reported selectivity ratio.
- experiment-description: Selectivity index, ratio of CC50 for African green monkey Vero cells to IC50 for chloroquine-resistant Plasmodium falciparum K1 infected in human erythrocytes
- Assay type: toxicity, cell-based
- details: read-out: Ratio CC50/IC50
observable: selectivity ratio

>  <smiles-data>
N#Cc1ccc(N/N=C2\C(=O)N(Cc3cn(O[C@@H]4O[C@H](CO)[C@H](O)[C@H](O)[C@H]4O)nn3)c3ccccc32)cc1

>  <reading-qualifier>
=

>  <measured>
28.4

$$$$
>  <smiles-data>
CC1(C)O[C@H]2O[C@H](Cn3cc(CN4C(=O)/C(=N\Nc5ccc(Br)cc5)c5ccccc54)nn3)[C@H](O)[C@H]2O1

>  <reading-qualifier>
=

>  <measured>
20.7

$$$$
>  <smiles-data>
O=C1/C(=N\Nc2cccc(Cl)c2)c2ccccc2N1Cc1cn(O[C@@H]2O[C@H](CO)[C@H](O)[C@H](O)[C@H]2O)nn1

>  <reading-qualifier>
=

>  <measured>
32.2

$$$$
>  <smiles-data>
COc1ccc(N/N=C2\C(=O)N(Cc3cn(O[C@@H]4O[C@H](CC(C)=O)[C@@H](OC(C)=O)[C@H](OC(C)=O)[C@H]4OC(C)=O)nn3)c3ccccc32)cc1

>  <reading-qualifier>
=

>  <measured>
23.1

$$$$
>  <smiles-data>
O=C1/C(=N\Nc2ccc(Br)cc2)c2ccccc2N1Cc1cn(O[C@@H]2O[C@H](CO)[C@H](O)[C@H](O)[C@H]2O)nn1

>  <reading-qualifier>
=

>  <measured>
19.5

$$$$
>  <smiles-data>
CC1(C)O[C@H]2[C@@H](O1)[C@@H](Cn1cc(CN3C(=O)/C(=N\Nc4ccc(Br)cc4)c4ccccc43)nn1)O[C@@H]1OC(C)(C)O[C@@H]12

>  <reading-qualifier>
=

>  <measured>
73.9

$$$$
>  <smiles-data>
COc1ccc(N/N=C2\C(=O)N(Cc3cn(O[C@@H]4O[C@H](CO)[C@@H](O)[C@H](O)[C@H]4O)nn3)c3ccccc32)cc1

>  <reading-qualifier>
=

>  <measured>
16.3

$$$$
>  <smiles-data>
CC(=O)C[C@H]1O[C@@H](On2cc(CN3C(=O)/C(=N\Nc4ccc(C#N)cc4)c4ccccc43)nn2)[C@H](OC(C)=O)[C@@H](OC(C)=O)[C@@H]1OC(C)=O

>  <reading-qualifier>
=

>  <measured>
13.2

$$$$
>  <smiles-data>
CC(=O)C[C@H]1O[C@@H](On2cc(CN3C(=O)/C(=N\Nc4ccc(F)cc4)c4ccccc43)nn2)[C@H](OC(C)=O)[C@@H](OC(C)=O)[C@H]1OC(C)=O

>  <reading-qualifier>
=

>  <measured>
26.2

$$$$
>  <smiles-data>
CC(=O)C[C@H]1O[C@@H](On2cc(CN3C(=O)C(=O)c4ccccc43)nn2)[C@H](OC(C)=O)[C@@H](OC(C)=O)[C@@H]1OC(C)=O

>  <reading-qualifier>
<

>  <measured>
13.7

$$$$
>  <smiles-data>
CC(=O)C[C@H]1O[C@@H](On2cc(CN3C(=O)/C(=N\Nc4ccc(Br)cc4)c4ccccc43)nn2)[C@H](OC(C)=O)[C@@H](OC(C)=O)[C@H]1OC(C)=O

>  <reading-qualifier>
=

>  <measured>
28.6

$$$$
>  <smiles-data>
CC1(C)O[C@H]2O[C@H](Cn3cc(CN4C(=O)C(=O)c5ccccc54)nn3)[C@H](O)[C@H]2O1

>  <reading-qualifier>
>

>  <measured>
58.8

$$$$
>  <smiles-data>
CC1(C)O[C@H]2O[C@H](Cn3cc(CN4C(=O)/C(=N\Nc5ccc(F)cc5)c5ccccc54)nn3)[C@H](O)[C@H]2O1

>  <reading-qualifier>
=

>  <measured>
21

$$$$
>  <smiles-data>
CC1(C)O[C@H]2O[C@H](Cn3cc(CN4C(=O)/C(=N\Nc5cccc(Cl)c5)c5ccccc54)nn3)[C@H](O)[C@H]2O1

>  <reading-qualifier>
=

>  <measured>
20.5

$$$$
>  <smiles-data>
CC1(C)O[C@H]2[C@@H](O1)[C@@H](Cn1cc(CN3C(=O)/C(=N\Nc4ccc(F)cc4)c4ccccc43)nn1)O[C@@H]1OC(C)(C)O[C@@H]12

>  <reading-qualifier>
=

>  <measured>
46.4

$$$$
>  <smiles-data>
COc1ccc(N/N=C2\C(=O)N(Cc3cn(O[C@@H]4O[C@H](CC(C)=O)[C@H](OC(C)=O)[C@H](OC(C)=O)[C@H]4OC(C)=O)nn3)c3ccccc32)cc1

>  <reading-qualifier>
=

>  <measured>
20

$$$$
>  <smiles-data>
O=C1/C(=N\Nc2ccccc2)c2ccccc2N1Cc1cn(O[C@@H]2O[C@H](CO)[C@H](O)[C@H](O)[C@H]2O)nn1

>  <reading-qualifier>
=

>  <measured>
9.6

$$$$
>  <smiles-data>
COc1ccc(N/N=C2\C(=O)N(Cc3cn(C[C@H]4O[C@@H]5OC(C)(C)O[C@@H]5[C@H]4O)nn3)c3ccccc32)cc1

>  <reading-qualifier>
=

>  <measured>
22.7

$$$$
